- Test system: M14 melanoma
- Test summary: NCI tumour cell line growth inhibition, 48 h
For each entry below, report its TGI value.
Hi! Could you send only the number? It should be in µM, unit omitted.

In: Give TGI (M14 melanoma) of the following molecule: `COC(=O)/C(Br)=C/c1c[nH]c2ccc(Br)cc12`
Out: 25.8

In: Try this molecule too: `O=C(NC1CCN(Cc2ccccc2)CC1)c1ccccc1I`
Out: 33.4

In: Try this molecule too: `CCOC(=O)c1c2c(n3cccc(F)c13)C(=O)c1ncccc1C2=O`
Out: 1.29

In: Try this molecule too: `CCN1CCN(Cc2ccc3cc(C(=O)Nc4cc(NC(=O)c5ccc6c(c5)OCCO6)ccc4F)ccc3n2)CC1`
Out: 11.8
